Hey, just so you know, these numbers are from paper PMC8512853.

Biological target: human serum albumin (HSA) (Homo sapiens, UniProt P02768)
Construct: purchased CHIRAL PAK
Sequence (P02768 25-609): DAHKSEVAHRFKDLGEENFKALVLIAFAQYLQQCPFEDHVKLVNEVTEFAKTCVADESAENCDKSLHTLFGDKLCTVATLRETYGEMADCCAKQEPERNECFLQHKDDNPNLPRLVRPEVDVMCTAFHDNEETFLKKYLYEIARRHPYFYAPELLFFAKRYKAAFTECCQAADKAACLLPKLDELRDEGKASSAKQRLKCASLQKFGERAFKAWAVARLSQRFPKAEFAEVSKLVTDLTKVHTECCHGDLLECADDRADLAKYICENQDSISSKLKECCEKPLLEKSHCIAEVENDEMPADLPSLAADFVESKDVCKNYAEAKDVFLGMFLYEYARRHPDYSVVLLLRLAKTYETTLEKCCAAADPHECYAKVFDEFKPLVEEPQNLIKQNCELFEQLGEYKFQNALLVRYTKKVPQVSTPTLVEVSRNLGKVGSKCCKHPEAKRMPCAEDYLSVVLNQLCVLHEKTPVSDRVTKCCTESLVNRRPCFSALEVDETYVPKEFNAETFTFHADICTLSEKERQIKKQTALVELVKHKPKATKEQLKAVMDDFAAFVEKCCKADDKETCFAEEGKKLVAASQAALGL
Assay: HSA chromatography and estimated plasma protein binding
Assay type: in vitro ADME
Settings: human, immobilized human serum albumin (HSA) column; Equation (2) from logk10, pH 7.00; read-out: %PPB estimated plasma protein binding (converted)
reported_endpoint: fraction unbound

Worked examples, 3 molecules total:
Cc1c(-c2cccc(Cl)c2)c(=O)oc2cccc(O)c12; 0.201
CC(=O)Oc1cccc2oc(=O)c(-c3ccc(Cl)cc3)c(C)c12; 0.091
Cc1c(-c2ccc(O)cc2)c(=O)oc2ccc(Cl)cc12; 0.196

Switching to the query record.
### Prompt Assign fraction unbound to the following record: CC(=O)Oc1cccc2oc(=O)c(-c3ccccc3Cl)c(C)c12
### Response 0.202

---

Test: ABTS radical scavenging assay
Settings: 6 min
# label = y if ABTS^•+ % (100 μΜ) >= 30% else n

O=C1O[C@H]([C@@H](O)CO)C(O)=C1O [Ascorbic acid, reference compound]; y
CC(=O)Oc1ccc(-c2c(C)c3ccccc3oc2=O)cc1OC(C)=O; n
Cc1c(-c2ccccc2Cl)c(=O)oc2cccc(O)c12; y

### Prompt Has Cc1c(-c2cccc(Cl)c2)c(=O)oc2cccc(O)c12 a recorded ABTS^•+ % (100 μΜ) greater than or equal to 30%?
### Response y

### Prompt Has CC(=O)Oc1cccc2oc(=O)c(-c3cccc(Cl)c3)c(C)c12 a recorded ABTS^•+ % (100 μΜ) greater than or equal to 30%?
### Response n

### Prompt Has Cc1c(-c2ccc(O)cc2)c(=O)oc2c(Br)cc(Br)cc12 a recorded ABTS^•+ % (100 μΜ) greater than or equal to 30%?
### Response n

### Prompt Has CC(=O)Oc1cccc2oc(=O)c(-c3cccc(F)c3)c(C)c12 a recorded ABTS^•+ % (100 μΜ) greater than or equal to 30%?
### Response n

### Prompt Has Cc1c(C)c2c(c(C)c1O)CCC(C)(C(=O)O)O2 (stereo not shown) [Trolox, reference compound] a recorded ABTS^•+ % (100 μΜ) greater than or equal to 30%?
### Response y

### Prompt Has Cc1c(-c2ccc(O)cc2)c(=O)oc2ccccc12 a recorded ABTS^•+ % (100 μΜ) greater than or equal to 30%?
### Response n

### Prompt Has CC(=O)Oc1cccc2oc(=O)c(-c3ccc(Cl)cc3)c(C)c12 a recorded ABTS^•+ % (100 μΜ) greater than or equal to 30%?
### Response n

---

Assay: IAM chromatography (IAM.PC.DD.2 column) and estimated human oral absorption
Format: in vitro ADME
Details: Equation (1) from logkw and physicochemical properties
reported_endpoint: %HOA estimated human oral absorption (%)
Respond with the bare value in %.

Worked examples, 5 molecules total:
CC(=O)Oc1ccc(-c2c(C)c3cc(Br)ccc3oc2=O)cc1; 99.8
Cc1c(-c2cccc(Cl)c2)c(=O)oc2cccc(O)c12; 99.9
CC(=O)Oc1ccc(-c2c(C)c3cc(Br)cc(Br)c3oc2=O)cc1; 99.9
Cc1c(-c2cccc(F)c2)c(=O)oc2cccc(O)c12; 99.9
CC(=O)Oc1ccc(-c2c(C)c3ccccc3oc2=O)cc1; 99.7

Switching to the query record.
### Prompt Assign %HOA estimated human oral absorption to the following record: Cc1c(-c2ccccc2F)c(=O)oc2cccc(O)c12
### Response 100
